Each item that follows carries a reported Kd.
# system: T1, recombinant human IL-13 (human, UniProt P35225 35-146, limits assumed)
# T1 construct: also called hrIL-13; rhIL-13
# T1 sequence (P35225 35-146 limits assumed): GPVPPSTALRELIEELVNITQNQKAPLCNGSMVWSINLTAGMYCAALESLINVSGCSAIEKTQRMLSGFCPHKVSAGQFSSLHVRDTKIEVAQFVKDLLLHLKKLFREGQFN
# assayProcedure: SPR, BIAcore 2000; Fab captured via anti-human L-kappa antibody, hrIL-13 injected; 1:1 Langmuir model
Value and unit, in that order.

binder: 01951/G12 Fab (Fab, V domains shown, Soluble human Fab expressed in E. coli, kappa light chain) VH: EVQLVESGGGVVQPGRSLRLSCAASGFTFSSYGMHWVRQAPGKGLEWVAIIWYDGSNKYYADSVKGRFTISRDNSKNTLYLQMNSLRAEDTAVYYCARLWFGDLDAFDIWGQGTMVT VL: EIVLTQSPATLSLSPGERAILSCRAGQSVSSYLVWYQQKPGQAPRLLIYDASNRATGIPARFSGSGSGTDFTLTISSLEPEDFAVYYCQQRSSWPPVYTFGQGT
Kd: 480 pM

State the recorded Kd for this entry: 01471/G6 Fab (Fab, V domains shown, Soluble human Fab expressed in E. coli, kappa light chain (captured via anti-human L-kappa antibody); the printed variable regions stop short of the end of framework 4) VH: EVQLVESGGGVVQPGRSLRLSCAASGFTFSNYGMHWVRQAPGKGLEWVAIIWYDGSNKYYADSVKGRFTISRDNSKNTLYLQMNSLRAEDTAVYYCVKGSGDIPFDYWGQGTLVT VL: EIVLTQSPATLSSSPGERATLSCRASQSVSSYLAWYQQKPGQAPRLLIYDASNRATGIPARFSGSGSGTDFTLTISSLEPEDFAVYYCHQRSHWPPIFTFGPGT
100 pM

# iterate: 01771/E10 Fab (Fab, V domains shown, Soluble human Fab expressed in E. coli, kappa light chain) VH: QVQLVQSGGGVVQPGRSLRLSCAASGFTFSSYGMHWVRQAPGKGLEWVAIIWYDGSNKYYADSVKGRFTISRDNSKNTLYLQMNSLRAEDTAVYYCARLWFGDLDAFDIWGQGTMVT VL: EIVLTQSPATLSLSPGERATLSCRASQSVSSYLAWYQQKPGQAPRLLIYDASNRATGIPARFSGSGSGTDFTLTISSLEPEDFAVYYCHQRSSWPPIFTFGPGT
343 pM

// query: 03161/H2 Fab (Fab, V domains shown, Soluble human Fab expressed in E. coli, kappa light chain) VH: EVQLVESGGGVVQPGRSLRLSCAASGFTFSNYGMHWVRQAPGKGLEWVAIIWYDGSNKYYADSVKGRFTISRDNSKNTLYLQMNSLRAEDTAVYYCVKGSGDIPFDYWGQGTLVT VL: EIVLTQSPATLSSSPGERATLSCRASQSVSSYLAWYQQKPGQAPRLLIYDASNRATGTPARFSGSGSGTDFTLTISSLEPEDFAVYYCHQRSHWPPIFTFGPGT
197 pM
